# study_target: T1, human CD3 on the cell surface (Jurkat cells, expanded human T cells, Jurkat-Lucia NFAT cells, human PBMC) (human, UniProt P07766 23-207; P04234 22-171; P09693 23-182)
# T1 construct: whole, on cells; Endogenous CD3 within the TCR-CD3 complex on cells (also zeta chains and TCR); the cell type is named under assay
# T1 sequence (P07766 23-207, chain 1 of 3): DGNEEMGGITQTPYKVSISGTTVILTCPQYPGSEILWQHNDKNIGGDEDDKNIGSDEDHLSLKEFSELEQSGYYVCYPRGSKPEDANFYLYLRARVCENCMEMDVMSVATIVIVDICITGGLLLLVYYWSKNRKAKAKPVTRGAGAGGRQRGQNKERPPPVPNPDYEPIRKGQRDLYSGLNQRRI
# T1 sequence (P04234 22-171, chain 2 of 3): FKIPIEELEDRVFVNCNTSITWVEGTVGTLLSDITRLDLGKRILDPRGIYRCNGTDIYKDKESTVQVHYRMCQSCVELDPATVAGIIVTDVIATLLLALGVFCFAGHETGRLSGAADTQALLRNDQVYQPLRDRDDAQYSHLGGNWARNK
# T1 sequence (P09693 23-182, chain 3 of 3): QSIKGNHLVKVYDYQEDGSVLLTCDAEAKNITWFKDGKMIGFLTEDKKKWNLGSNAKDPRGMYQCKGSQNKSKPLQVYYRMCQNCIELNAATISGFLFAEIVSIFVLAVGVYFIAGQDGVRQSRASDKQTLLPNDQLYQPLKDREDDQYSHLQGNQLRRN
# test_protocol: FACS, expanded human T cells
endpoint_label: max_MFI (MFI)
Write the answer as a number in MFI, unit excluded.

Solved entries (count: 2):
• 6-44.5-H1-L2 humanized antibody (antibody, human IgG1, kappa, V domains shown) VH: EVQLVQSGAEVKKPGSSVKVSCKASGHTFSSHIMHWVRQAPGQGLEWMGYINPNNDRTEYSEKFKGRVTITADKSTSTAYMELSSLRSEDTAVYYCAGEAYYSNSLYAMDYWGQGTTVTVSS VL: DIVMTQSPDSLAVSLGERATINCKSSQSLFNSRTRKNYLAWYQQKPGQSPKLLIYWASTRESGVPDRFSGSGSGTDFTLTISSLQAEDVAVYYCKQSYYLRTFGGGTKVEIKR = 34000
• 40G5c-hIgG1 (antibody, V domains shown) VH: EVQLVQSGAEVKKPGASVKVSCKASGYTFTNYYIHWVRQAPGQGLEWIGWIYPGDGNTKYNEKFKGRATLTADTSTSTAYLELSSLRSEDTAVYYCARDSYSNYYFDYWGQGTLVTVSS VL: DIVMTQSPDSLAVSLGERATINCKSSQSLLNSRTRKNYLAWYQQKPGQPPKLLIYWASTRESGVPDRFSGSGSGTDFTLTISSLQAEDVAVYYCTQSFILRTFGQGTKVEIKR = 33500

Now look at this one.
[Q] Bench note: what max_MFI did 5-40.21-H3-L1 humanized antibody (antibody, human IgG1, kappa, V domains shown) VH: EVQLVQSGAEVKKPGASVKVSCKASGYTFTSYWMHWVRQAPGQGLEWMGNTYPGSGSTNYDEKFKSRVTITVDSSASTAYMELSSLRSEDTAVYYCTRDRYGVYYFDYWGQGTTVTVSS VL: DIVMTQSPDSLAVSLGERATINCKSSQSLLNSRTRKNYLAWYQQKPGQSPKLLIYWASTRESGVPDRFSGSGSGTDFTLTISSLQAEDVAVYYCTQSYNLRTFGGGTKVEIKR show?
[A] 18000

Measured values drawn from patent US20250136687A1 for this set.
